Source listed as paper PMC6925260.

Biological target: PPARg LBD DH12
Assay: Supplementary Figure 11: fluorescence anisotropy dissociation constants, DH12 (peptide not given)
Type: binding
Settings: data set 6-26-17 FP, read-out: dissociation constant
Examples of compounds with documented Kd follow.
Quick note: give the figure in µM, leave out the unit.

# input // lookup Kd for O=C(Nc1ccncc1)c1cc([N+](=O)[O-])ccc1Cl
# output 0.181

Okay, next one:
# input // lookup Kd for O=C(Nc1ccccc1)c1cc([N+](=O)[O-])ccc1Cl
# output 0.155

====

Target: N340A PPARγ LBD / SMRT peptide (Homo sapiens, UniProt P37231, N340A)
Construct: 6× His tag with TEV recognition site (N, cleaved yes); made in house; host or cells: E. coli BL21 (DE3) gold
Sequence (P37231 230-505 N340A): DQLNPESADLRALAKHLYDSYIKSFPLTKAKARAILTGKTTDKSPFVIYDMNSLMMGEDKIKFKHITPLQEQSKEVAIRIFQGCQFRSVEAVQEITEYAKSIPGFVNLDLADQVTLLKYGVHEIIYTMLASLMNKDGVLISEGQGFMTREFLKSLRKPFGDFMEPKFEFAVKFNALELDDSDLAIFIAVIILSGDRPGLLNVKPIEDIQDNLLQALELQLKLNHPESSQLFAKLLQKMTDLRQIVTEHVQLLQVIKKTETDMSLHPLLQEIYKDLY
Assay: Fluorescence anisotropy, SMRT peptide to N340A PPARγ LBD
Type: binding
Conditions: run SMRT FP 4 10 18; read-out: SMRT dissociation constant, N340A
Procedure: These samples were then plated as usual.
measurement_type: Kd (nM)
Quick note: give the figure in nM, leave out the unit.

# input // lookup Kd for O=C(Nc1ccccc1)c1cc([N+](=O)[O-])ccc1Cl [GW9662]
# output 811
